Where these numbers come from: paper PMC3894558

- System: P. falciparum 3D7 gametocytes
- Protocol: alamarBlue gametocyte viability assay, strain 3D7
- Assay type: cell-based, Plasmodium falciparum
- Condition set: Plasmodium falciparum, 3D7, P. falciparum 3D7 gametocytes; mean of at least 3 independent experiments; read-out: Gametocyte IC50
Values of IC50 strictly less than 400 nM map to Yes, and values of at least 400 nM map to No.

CC1=C(CO)C(=O)O[C@@H]([C@@H](C)[C@H]2CC[C@H]3[C@@H]4C[C@H]5O[C@]56[C@@H](O)C=CC(=O)[C@]6(C)[C@H]4CC[C@]23C)C1 :: Yes
CCNC(=O)c1noc(-c2cc(C(C)C)c(O)cc2O)c1-c1ccc(CN2CCOCC2)cc1 :: Yes
Cc1[nH]c2ccccc2c1CCNCc1ccc(/C=C/C(=O)NO)cc1 :: No
Nc1ccc(-c2ccc3ncc4ccc(=O)n(-c5cccc(C(F)(F)F)c5)c4c3c2)cn1 :: Yes
COc1cccc2c1C(=O)c1c(O)c3c(c(O)c1C2=O)C[C@@](O)(C(=O)CO)C[C@@H]3O[C@H]1C[C@H](N)[C@H](O)[C@H](C)O1 :: No

### Prompt Bench note: check whether CO[C@H]1/C=C\C=C(/C)C(=O)NC2=CC(=O)C(NCCN(C)C)=C(C[C@@H](C)C[C@H](OC)[C@H](O)[C@@H](C)/C=C(\C)[C@@H]1OC(N)=O)C2=O shows IC50 below 400 nM
### Response Yes

### Prompt Bench note: check whether CN(C)c1ccc2nc3ccc(=[N+](C)C)cc-3sc2c1 shows IC50 below 400 nM
### Response Yes

* * *

- System: P. falciparum 3D7 gametocytes
- Protocol: alamarBlue gametocyte viability assay, strain 3D7
- Type: cell-based, Plasmodium falciparum
- Condition set: Plasmodium falciparum, 3D7, P. falciparum 3D7 gametocytes; mean of at least 3 independent experiments; read-out: Gametocyte IC50
Measure: pIC50
One number for each entry, as −log10 of the molar value.

Worked set:
C[C@H]1[C@H](OC(=O)CCC(=O)O)O[C@@H]2O[C@@]3(C)CC[C@H]4[C@H](C)CC[C@@H]1[C@@]24OO3 [Artesunate] :: 7.23
CO[C@H]1O[C@@H]2O[C@@]3(C)CC[C@H]4[C@H](C)CC[C@@H]([C@H]1C)[C@@]24OO3 [Artemether] :: 7.14
COCCn1c2c([n+](Cc3cnccn3)c1C)C(=O)c1ccccc1C2=O [YM155] :: 6.43

Turning to the following compound.
### Prompt Please give the measured pIC50 for this compound: OC(c1cc(C(F)(F)F)nc2c(C(F)(F)F)cccc12)C1CCCCN1 (stereo not shown) [Mefloquine]
### Response 6.08

* * *

- Tested on: P. falciparum 3D7 gametocytes
- Protocol: alamarBlue gametocyte viability assay, strain 3D7
- Assay type: cell-based, Plasmodium falciparum
- Condition set: Plasmodium falciparum, 3D7, P. falciparum 3D7 gametocytes; mean of at least 3 independent experiments; read-out: Gametocyte IC50
Measure: IC50 (nM)
Answers are plain numbers, in nM.

Worked set:
CN(C)C(=S)SSC(=S)N(C)C :: 83
CC[C@@H](C(=O)O)[C@@H]1O[C@@H]([C@@H](C)[C@H](O)[C@H](C)C(=O)[C@H](CC)[C@H]2O[C@]3(C=C[C@@H](O)[C@]4(CC[C@@](C)([C@H]5CC[C@](O)(CC)[C@H](C)O5)O4)O3)[C@H](C)C[C@@H]2C)[C@@H](C)C[C@@H]1C :: 50
CN(C)C/C=C/C(=O)Nc1cc2c(Nc3ccc(F)c(Cl)c3)ncnc2cc1O[C@H]1CCOC1 :: 935
C[C@@H]1CC[C@H]2[C@@H](C)C(=O)O[C@@H]3O[C@@]4(C)CC[C@@H]1[C@]32OO4 :: 148
CCN(CCO)CCCOc1ccc2c(Nc3cc(CC(=O)Nc4cccc(F)c4)n[nH]3)ncnc2c1 :: 743

Working through the 8 compounds below one at a time, give IC50 for each.
1. C#Cc1cccc(Nc2ncnc3cc(OC)c(OCCCCCCC(=O)NO)cc23)c1
2. [O-][n+]1ccccc1SSc1cccc[n+]1[O-]
3. CC(C)C[C@H](NC(=O)[C@H](Cc1ccccc1)NC(=O)c1cnccn1)B(O)O
4. COc1ccc(C[C@H](N)C(=O)N[C@H]2[C@@H](O)[C@H](n3cnc4c(N(C)C)ncnc43)O[C@@H]2CO)cc1
5. CO[C@@H]1[C@@H](OC)[C@H](C)[C@@](O)(CC(=O)O)O[C@H]1[C@H](C)[C@H]1O[C@@]2(CC[C@@](C)([C@H]3CC[C@@](C)([C@@H]4O[C@@H]([C@H]5O[C@](C)(O)[C@H](C)C[C@@H]5C)C[C@@H]4O[C@@H]4C[C@H](OC)[C@@H](OC)[C@H](C)O4)O3)O2)C[C@H](O)[C@H]1C
6. CC(C)C[C@H](NC(=O)[C@H](CCc1ccccc1)NC(=O)CN1CCOCC1)C(=O)N[C@@H](Cc1ccccc1)C(=O)N[C@@H](CC(C)C)C(=O)[C@@]1(C)CO1
7. C[C@H]1[C@@H](O)O[C@@H]2O[C@@]3(C)CC[C@H]4[C@H](C)CC[C@@H]1[C@@]24OO3
8. O=C1C(=O)c2ncccc2-c2cccnc21

### Response
1: 833; 2: 263; 3: 118; 4: 1050; 5: 47; 6: 12; 7: 77; 8: 109

### Prompt Lab note: need IC50 with P. falciparum 3D7 gametocytes for entry CC(=O)Nc1cccc(-n2c(=O)n(C3CC3)c(=O)c3c(Nc4ccc(I)cc4F)n(C)c(=O)c(C)c32)c1 , please look it up.
### Response 935
